Reported IC50 against RAC-alpha serine/threonine-protein kinase (Homo sapiens, UniProt P31749), gathered from multiple publications, appears below.
Sequence (P31749 whole entry): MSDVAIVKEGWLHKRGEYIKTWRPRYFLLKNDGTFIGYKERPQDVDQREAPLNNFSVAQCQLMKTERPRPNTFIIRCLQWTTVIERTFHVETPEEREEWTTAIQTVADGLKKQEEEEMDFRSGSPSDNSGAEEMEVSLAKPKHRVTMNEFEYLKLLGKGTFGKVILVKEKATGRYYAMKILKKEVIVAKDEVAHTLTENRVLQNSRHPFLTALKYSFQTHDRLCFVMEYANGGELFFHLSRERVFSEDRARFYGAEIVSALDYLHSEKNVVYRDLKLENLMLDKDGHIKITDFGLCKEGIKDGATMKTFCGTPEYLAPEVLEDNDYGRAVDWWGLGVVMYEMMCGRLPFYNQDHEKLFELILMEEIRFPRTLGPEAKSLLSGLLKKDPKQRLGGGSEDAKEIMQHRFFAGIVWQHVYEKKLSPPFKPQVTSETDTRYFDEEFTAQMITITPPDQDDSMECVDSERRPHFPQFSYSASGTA
property: IC50 (µM)

compound: Cn1ncc(Cl)c1-c1cc(C(=O)N[C@@H]2CN[C@H](CC(O)CO)C[C@H]2c2ccc(Cl)c(Cl)c2)oc1Cl (stereo not given in full)
unit-descriptor: µM
IC50: 0.00379
//
compound: N[C@H](COc1cncc(-c2ccc3[nH]nc(-c4ccc[nH]4)c3c2)c1)Cc1c[nH]c2ccccc12
unit-descriptor: µM
IC50: 0.0012
//
compound: CC(C)NCc1ccc(Nc2cc(-c3ccc(-c4ccc(O)cc4O)cc3)[nH]n2)cc1
unit-descriptor: µM
IC50: 26.9
//
compound: COc1cc2ncc3c(N)nc(-c4cncc(OC[C@@H](N)Cc5ccccc5Cl)c4)cc3c2cc1OC
unit-descriptor: µM
IC50: 0.793
//
compound: Clc1ccc(C(NCc2ccccc2)c2ccc(-c3ncnc4[nH]cnc34)cc2)cc1 (stereo not given)
unit-descriptor: µM
IC50: 0.74
//
compound: Cc1n[nH]c2cnc(-c3cc(OC[C@@H](N)Cc4c[nH]c5ccccc45)cnc3-c3ccoc3)nc12
unit-descriptor: µM
IC50: 0.001
//
compound: NCC(NC(=O)c1cc(-c2c[nH]c3ncccc23)cs1)c1ccccc1 (stereo not given)
unit-descriptor: µM
IC50: 0.025
//
compound: NC1(c2ccc(-c3c(-c4ccccc4)ccc4ncnn34)cc2)CCC1
unit-descriptor: µM
IC50: 2.14
//
compound: Cc1cc(C)c(C[C@H](N)COc2cncc(-c3cc4c(C)n[nH]c4cn3)c2)c(C)c1
unit-descriptor: µM
IC50: 0.039

[P] NC1(c2ccc(-c3nc4ccccc4cc3-c3ccccc3)cc2)CCC1
[Q] CC(=O)Nc1ccc(-c2cc(C(=O)Nc3ccc(N(Cc4ccccc4)Cc4ccccc4)cc3)ccc2NCCNC(=N)N)cc1
Lower value for measured IC50? Options: P , Q Write down the label attached to your selection. P
(P: 0.243 µM, Q: 253 µM)
